Measured Growth Rate values are reported for all entries that follow.
# Test system: HEK-293T
# experiment: Incucyte cell viability with HEK293T; also: filed as whole numbers so only -1 and 0 and 1 occur
# Format: toxicity, cell-based
# run-parameters: human, 18 h, 10 µM, compound concentration 10 uM, replicate number 2, timepoint 18 hours
metric-name: Growth Rate

• Cc1nnn(-c2ccc(-c3ccc(C4(C(=O)O)CC4)cc3)cc2)c1NC(=O)O[C@H](C)c1ccccc1 = 1
• COc1cc(N2CCN(C)CC2)ccc1Nc1ncc2c(n1)N(C)c1ccccc1C(=O)N2C = 0
• CCCCN(CCCC)C(=O)CN1C[C@H](c2cc(OC)c3c(c2)OCO3)[C@@H](C(=O)O)[C@@H]1CC(C)(C)CCC.Cc1ccc(S(=O)(=O)O)cc1 = 0
• N[C@@H](Cc1cc(I)c(Oc2ccc(O)c(I)c2)c(I)c1)C(=O)O [LIOTHYRONINE] = 0
• CN(C)C(=O)c1cc2cnc(Nc3ccc(N4CCNCC4)cn3)nc2n1C1CCCC1 [RIBOCICLIB] = 0
• c1ccc(Nc2nc3c(s2)CCCc2[nH]ncc2-3)nc1 = 1
• Cc1oncc1C(=O)Nc1ccc(C(F)(F)F)cc1 [LEFLUNOMIDE] = 0
• Nc1cc(F)ccc1NC(=O)/C=C/c1cnn(C/C=C/c2ccccc2)c1 = 1
• CCn1c(=O)c(-c2ccc(-c3cncs3)cc2Cl)cc2cnc(Nc3ccc(N4CCN(C)CC4)cc3)nc21 = 1
• NS(=O)(=O)c1c(Cl)ccc(NC(=O)Nc2cccc(Cl)c2Cl)c1O = 1
• COc1ccnc(N2CCC3(CCCN(Cc4c[nH]c5ccccc45)C3=O)CC2)n1 = 0
• O=C1NC(c2ccccn2)Sc2ccccc21 (centres undefined) [BTZO-4] = 1
• Cn1nc(C(=O)NCc2ccc(C(=O)O)cc2)cc1-c1ccc2[nH]ccc2c1 [BI 4395] = 1
• CC(C)(Sc1ccc(CCN(CCCCC2CCCCC2)C(=O)NC2CCCCC2)cc1)C(=O)O [GW7647] = 1

----------
Measured Population Tubulin-Different-Phenotype (%) values are reported for all entries that follow.
# System: U2OS
# experiment: Multiplex assay against U2OS
# Assay type: toxicity, cell-based
# run-parameters: human, 48 h, 10 µM, compound concentration 10 uM, replicate 2
metric-name: Population Tubulin-Different-Phenotype (%)

- CN1CCN(C(=O)C(C)(C)c2ccc(C(=O)Nc3cn4cc(-c5ccncc5)ccc4n3)cc2)CC1: 90
- S=C(NCCCc1c[nH]cn1)NCCCN(Cc1ccc(Cl)c(Cl)c1)c1ccc(Br)cn1: 92
- Cl.Oc1ccc2c3c1O[C@H]1c4[nH]c5c(c4C[C@@]4(O)[C@@H](C2)N(CC2CC2)CC[C@]314)C[C@@]1(O)[C@H]2Cc3ccc(O)c4c3[C@@]1(CCN2CC1CC1)[C@H]5O4: 84
- CNc1cc(Oc2cc(C(=O)Nc3cc(N4CCN(C)CC4)cc(C(F)(F)F)c3)ccc2C)ncn1: 89

----------
# System: HEK-293T
# experiment: Multiplex assay against HEK293T
# Type: toxicity, cell-based
# run-parameters: human, 12 h, 10 µM, compound concentration 10 uM, replicate 2
Measured Population Membrane Permeable-Phenotype (%) values are reported for all entries that follow.
metric-name: Population Membrane Permeable-Phenotype (%)

• Cc1cc(C)c(S(=O)(=O)N(Cc2ccc(-c3cccc(S(C)(=O)=O)c3)cc2)Cc2ccc(C(F)(F)F)o2)c(C)c1 = 5
• CCN1CCN(Cc2ccc(Nc3ncc(F)c(-c4cc(F)c5nc(C)n(C(C)C)c5c4)n3)nc2)CC1.CS(=O)(=O)O = 2
• Cc1ccc2nc(NCCN)c3ncc(C)n3c2c1.O=C(O)C(F)(F)F.O=C(O)C(F)(F)F = 1
• CCOC(=O)c1c(C)[nH]c2ccc3c(c12)CN1CCc2cc(OC)ccc2C1O3 (stereo unspecified) = 7
• Cl.Oc1ccc2c3c1O[C@H]1c4[nH]c5c(c4C[C@@]4(O)[C@@H](C2)N(CC2CC2)CC[C@]314)C[C@@]1(O)[C@H]2Cc3ccc(O)c4c3[C@@]1(CCN2CC1CC1)[C@H]5O4 = 6
• CCCS(=O)(=O)c1nc(NC2CC2)cc(-c2ccc3c(ccn3C3CC(C)(C)NC(C)(C)C3)c2)n1 = 0
• O=C1NC(=O)C(c2cnc3ccccn23)=C1c1cn2c3c(cc(F)cc13)CN(C(=O)N1CCCCC1)CC2 = 14
• Cc1ccc(C(=O)Nc2cccc(C(F)(F)F)c2)cc1Nc1nc(-c2cccnc2)nc2c1cnn2C = 4
• CNC(=O)c1ccc(Nc2nc(OC3CCCC3)c3c(-c4ccc5nc(C)oc5c4)c[nH]c3n2)c(OC)c1 = 13
• O=C(Nc1ccc(-c2ccnc(Nc3ccc(N4CCOCC4)cc3)n2)cc1)[C@@H]1CCCN1 = 12
• Cl.O=C(c1ccc(Nc2nccc(-c3cc4ccccc4s3)n2)cc1)N1CCC(N2CCCC2)CC1 = 6
• O=C(Nc1ccc(Cl)cc1)Nc1cccc(-c2cccc(N3CCCC3)n2)c1 = 70
• C=C1/C(=C\C=C2/CCC[C@]3(C)[C@@H]([C@H](C)/C=C/[C@H](C)C(C)C)CC[C@@H]23)C[C@@H](O)C[C@@H]1O = 6
• COC(=N)c1nc2ccc3ncnc(Nc4ccc(OC)cc4F)c3c2s1 = 2
• Cn1nc(C(=O)NCc2ccc(C(=O)O)cc2)cc1-c1ccc2[nH]ccc2c1 = 1
• O=C(Cc1ccc(-c2ccc(OCCN3CCOCC3)cc2)cn1)NCc1ccccc1 = 2
